test system: OVCAR-5 ovarian; experiment: NCI tumour cell line growth inhibition, 48 h
The entries below are paired with their reported TGI.

# example entries with known answers
COC(=O)C(=O)C(C(=O)C(=O)Nc1ccc([N+](=O)[O-])cc1[N+](=O)[O-])c1nc2ccc([N+](=O)[O-])cc2[nH]c1=O (stereo unspecified): > 100 µM
CC1(C)C2CC1C(/C=N\OCC(=O)O)=CC2=O (stereo unspecified): > 100 µM
O=c1oc2ccccc2cc1-c1ccc([N+](=O)[O-])cc1: > 100 µM

Please give the measured TGI for this compound: COc1cccc(N2C(=O)CSC2c2c[nH]c3ccccc23)c1 (stereo unspecified)
> 100 µM

Same lookup for O=[N+]([O-])/C(C(Cl)=C(Cl)Cl)=C(\Nc1cccc2cccnc12)Sc1ccccc1 , please.
> 100 µM

Try this compound too: COc1cc(-c2cc(C(=O)Nc3nc4ccccc4s3)nc3cc(-c4ccccc4)nn23)cc(OC)c1OC
> 100 µM

Would you kindly repeat that for N.N.NCCCCN.O=C([O-])CC(=O)[O-].O=C([O-])CC(=O)[O-].[Pt+4].[Pt+4] ?
> 100 µM

Follow-up entry: COC(=O)C1=C(C(=O)OC)C2(c3ccccc3)c3ccccc3C(=O)C1N2C1CCCCC1 (stereo unspecified)
> 100 µM

Next: Nc1nc(SCC(=O)O)[nH]c(=O)c1N
> 100 µM

Also need CCOC(=O)CCN1C(=O)c2ccc(NC(=O)C(=O)O)cc2S1(=O)=O , thanks.
> 100 µM

And CNc1nc2c(C)ccc3nc(N(C)C)nc-3c2n1C ?
> 10 µM

Now try COc1cc(/C=C2\CC(C)CC3C2=NN(c2ccccc2)C3c2cc(OC)c(OC)c(OC)c2)cc(OC)c1OC (stereo unspecified) .
> 100 µM

Follow-up item: O=P(Oc1ccccc1)(Oc1ccccc1)C(O)c1ccccc1 (stereo unspecified)
> 100 µM

Moving on to c1ccc(Oc2c3ccccc3nc3ccccc23)cc1
13.7 µM

Entry CCNCCNc1cc(-c2ccc(Cl)cc2)c(C#N)c2nc3ccccc3n12 please
3.67 µM

###

test system: HL-60(TB) leukemia; assay: NCI tumour cell line growth inhibition, 48 h; in the data active means GI50 below about 0.43 µM; inactive means the rest
API: response.call in True for active, False for inactive

COC(=O)/C=C1\SC(=Nc2ccc(C(F)(F)F)cc2)N(CCc2c[nH]c3ccccc23)C1=O: False
COc1ccc(-n2c(-c3ccc(NC(=O)CCCl)cc3)nnc2-c2cc(OC)c(OC)c(OC)c2)cc1: False
O=C1c2cccnc2-c2nc(-c3ccccn3)cc3c2c1nc1ccccc13: True
O=c1oc2ccccc2c(Cl)c1Cl: False

Next, consider the following molecule.
State the result this test recorded for Cc1cc(S(=O)(=O)Nc2nnc(-c3ccco3)c(-c3ccco3)n2)c(SCc2ccccc2)cc1Cl .
False

###

test system: OVCAR-5 ovarian; test: NCI tumour cell line growth inhibition, 48 h
readout kind: TGI

O=c1oc2ccccc2cc1-c1nc2ccccc2c(=O)[nH]1: > 100 µM

State the recorded TGI for this entry: CN(C)CCCNC(=O)c1cc(NC(=O)c2cc(NC(=O)CCCN3c4ccccc4C=Cc4ccccc43)cn2C)cn1C
46.9 µM

Also need CCOC(=O)Nn1cnnc1Cc1ccccc1 , thanks.
> 100 µM

Lookup O=NN(CCCl)C(=O)NCc1ccc[n+]([O-])c1
> 100 µM

Also CC1=CCP(C(F)(F)F)P(C(F)(F)F)C1 (configuration not stated) ?
> 100 µM

Lookup O=c1[nH]nc(Cc2ccccc2)n1N=C1CCCCC1
> 100 µM

And CCC(C)C1=C(O)[N+]2([O-])Oc3ccc(-c4c(O)c(O)c(-c5ccc(O)cc5)c(OC(C)=O)c4OC(C)=O)cc3OC2(C(C)CC)C(=O)N1O (configuration not stated) ?
> 50 µM

###

tested on: M14 melanoma; assay: NCI tumour cell line growth inhibition, 48 h
readout kind: TGI (µM)
Write it as a number; the unit µM goes unstated.

Below are worked cases with known answers.
Nc1ccc2c(c1)N(C(=O)CCCC(=O)N1CC(CCl)c3ccc(N)cc31)CC2CCl (stereo unspecified): 4.7
CC(=O)N1c2ccccc2C2=NN=C(N(C)C)SC21 (stereo unspecified): 7.97
Cc1cc2c(c(C=Nc3ccc(N(C)C)cc3)c1)OC1(C=C2)Oc2ccccc2C(=O)N1C (stereo unspecified): 30
N#Cc1c(-c2cccc(Br)c2)cc(-c2ccc(Cl)cc2)nc1N: 41.1
Cc1c2[nH]c3ccc(Br)cc3c2c(C)c2[nH]ccc(=O)c12: 30.9
COc1cc2c(cc1C)NC(=O)/C2=C\c1cccnc1: 77
COc1cc2c3c(n(CCCO)c(=O)c2cc1OC)-c1cc2c(cc1C3=O)OCO2: 32.8
CC(=O)O[C@H]1CC[C@@]2(C)C(=CC[C@H]3[C@@H]4C[C@H](N5CCN(C)CC5)[C@H](OC(C)=O)[C@@]4(C)CC[C@@H]32)C1: 8.2
CCNCCNc1cc(-c2ccc(Cl)cc2)c(C#N)c2nc3ccccc3n12: 3.38

Item O=c1oc2ccccc2c(Cl)c1Cl has what recorded TGI?
14.1

###

system: HCC-2998 colon; assay: NCI tumour cell line growth inhibition, 48 h; in the data active = GI50 below about 0.43 µM; inactive = the rest
Write down the outcome that applies. Available outcomes: active, inactive

Examples from the recorded data:
COc1cccc2c(Nc3ccc(C(=O)NCCNCCO)cc3)cc(-c3ccccc3)nc12: inactive
O=C(Nc1ncc([N+](=O)[O-])s1)c1cccc([N+](=O)[O-])c1: inactive
COC(=O)C1C(O)C(C)C(O)C(C)/C=C\C=C(C)C(=O)Nc2c(C)c(OC(C)=O)c3c(c2O)C(=O)C(C)=C2OCOC(=C23)C(C)=CC(C)(O)C(O)C(C)C1O (centres undefined): inactive

Read the next record carefully.
What outcome does the record of this test show for COc1ccc(/C=C\c2cc(OC)c(OC)c(OC)c2)cc1NC(=O)[C@@H](N)CO ?
active

###

Listed next: entries and their corresponding TGI.
tested on: OVCAR-5 ovarian; assay: NCI tumour cell line growth inhibition, 48 h

O=C(Nc1ncc([N+](=O)[O-])s1)c1cccc([N+](=O)[O-])c1: > 100 µM
O=S(=O)(O)c1cccc2ccc(O)c(N=Nc3ccc(S(=O)(=O)c4ccc(N=Nc5c(O)ccc6cccc(S(=O)(=O)O)c56)cc4)cc3)c12: > 100 µM

Query: TGI; subject: O=C(CCl)Nc1ccccc1SCc1cc(Cl)cc2c1OCOC2
27.7 µM

One more molecule: CCOc1cc(NC(C)=O)ccc1C(=O)NN1C(=O)C(Cl)C1c1ccc(O)c(OC)c1 (stereo not given)
33.9 µM

Please do the same for O=[N+]([O-])c1ccc(OCCNc2cccc3ccccc23)cc1 as well.
> 100 µM

Now consider O=C(Nc1cccc(C2=NCCN2)c1)c1ccc(OCCCOc2ccc(C(=O)Nc3cccc(C4=NCCN4)c3)cc2)cc1 and answer again.
20.4 µM

###

tested on: UACC-62 melanoma; assay: NCI tumour cell line growth inhibition, 48 h; in the data active = GI50 below about 0.43 µM; inactive = the rest
Please answer using one outcome listed in Yes (active), No (inactive)

Below are worked cases with known answers.
CCN(Cc1ccc(F)cc1F)c1ccc(CO)c(Cl)c1: Yes
COc1ccc(/C=C/C(=O)/C=C(/C=C/c2ccc(OC)c(OC)c2)OB(F)F)cc1OC: No

Give the logged outcome of this assay for the following molecule: COc1cccc2c(Nc3ccc(C(=O)NCCNCCO)cc3)cc(-c3ccccc3)nc12
No

Param item: COc1ccc2c(CN3CCC(CO)CC3)cc3cc4c(cc3c2c1)OCO4
Yes

Moving on to the next molecule: O=C(Nc1ncc([N+](=O)[O-])s1)c1cccc([N+](=O)[O-])c1
No

###

tested on: U251 CNS; experiment: NCI tumour cell line growth inhibition, 48 h
Overview of reported TGI across a group of compounds:
State just the number; it will be interpreted in µM.

O=C(Nc1ccccc1)O/N=C1/CCCC/C1=C\c1ccccc1: 30.2

Please find the next compound below.
Query (compound): CC1=CC(=C(c2ccc(N)c(C)c2)c2ccc(N)c(C)c2)C=CC1=N ; field requested: TGI
12.8

###

system: NCI-H522 lung; test: NCI tumour cell line growth inhibition, 48 h
readout kind: TGI

# lookup: TGI of COC(=O)[C@H](C)[C@H]1CC[C@@](C)([C@H]2CC3C(C)(C)[C@H]4CCC(C)=C[C@H]4C[C@@]3(C)O2)OO1 (stereo not given in full)
3.32 µM

###

test system: MALME-3M melanoma; assay: NCI tumour cell line growth inhibition, 48 h; in the data active = GI50 below about 0.43 µM; inactive = the rest
Please reply with one of these outcomes: TRUE (active), FALSE (inactive)

These recorded examples may help you get a feel for the data.
c1ccc(Oc2c3ccccc3nc3ccccc23)cc1: FALSE
O=C(Oc1cccc(Nc2ncnc3ccccc23)c1)c1ccccc1Cl: FALSE
Cc1ccc2c(/C=C/C(=O)c3cc(CN4CCOCC4)c(O)c4nc(C)ccc34)cc(CN3CCOCC3)c(O)c2n1: FALSE
O=C(CSc1nc2ccc([N+](=O)[O-])cc2[nH]1)Nc1cccc(C(F)(F)F)c1: FALSE
Clc1ccc(Nc2ccnc(NCCNc3ccnc4cc(Cl)ccc34)n2)cc1: FALSE

Dear colleague, could you share the recorded outcome for COc1ccc2c(CN3CCC(CO)CC3)cc3cc4c(cc3c2c1)OCO4 when you have a moment?
TRUE

What about this molecule? O=C(Nc1ncc([N+](=O)[O-])s1)c1cccc([N+](=O)[O-])c1
FALSE

Repeat for the following molecule: COc1cc2c3c(n(CCCO)c(=O)c2cc1OC)-c1cc2c(cc1C3=O)OCO2
FALSE

Next up: Cc1cc(S(=O)(=O)Nc2nnc(-c3ccco3)c(-c3ccco3)n2)c(SCc2ccccc2)cc1Cl
FALSE

Follow-up entry: Cc1c(C(=O)CCl)c(=O)n(-c2ccccc2)n1C
FALSE

Repeat with COc1cccc2c(Nc3ccc(C(=O)NCCNCCO)cc3)cc(-c3ccccc3)nc12
FALSE

Another molecule to look at: CCOC(=O)Oc1c(OC)cc(C(=O)c2ccc(OC)c(OC(=O)CCl)c2OC)cc1OC
FALSE

Okay, and O=C1c2cccnc2-c2nc(-c3ccccn3)cc3c2c1nc1ccccc13 ?
TRUE

Same again, this time with COc1ccc(-n2c(-c3ccc(NC(=O)CCCl)cc3)nnc2-c2cc(OC)c(OC)c(OC)c2)cc1
FALSE

Let us now turn to CS(=O)(=O)c1ccc(Oc2nccc(-c3c(-c4ccc(F)cc4)ncn3C3CCNCC3)n2)cc1
FALSE
